The following compounds are listed with their measured IC50 values.
Molecular target: pEGFR (Tyr1068) in PC-9 cells (Ex19Del) (Homo sapiens (Human), UniProt P00533, DEL746-750)
Sequence (P00533 other isoform, or with tags, fused parts or gaps del 746-750): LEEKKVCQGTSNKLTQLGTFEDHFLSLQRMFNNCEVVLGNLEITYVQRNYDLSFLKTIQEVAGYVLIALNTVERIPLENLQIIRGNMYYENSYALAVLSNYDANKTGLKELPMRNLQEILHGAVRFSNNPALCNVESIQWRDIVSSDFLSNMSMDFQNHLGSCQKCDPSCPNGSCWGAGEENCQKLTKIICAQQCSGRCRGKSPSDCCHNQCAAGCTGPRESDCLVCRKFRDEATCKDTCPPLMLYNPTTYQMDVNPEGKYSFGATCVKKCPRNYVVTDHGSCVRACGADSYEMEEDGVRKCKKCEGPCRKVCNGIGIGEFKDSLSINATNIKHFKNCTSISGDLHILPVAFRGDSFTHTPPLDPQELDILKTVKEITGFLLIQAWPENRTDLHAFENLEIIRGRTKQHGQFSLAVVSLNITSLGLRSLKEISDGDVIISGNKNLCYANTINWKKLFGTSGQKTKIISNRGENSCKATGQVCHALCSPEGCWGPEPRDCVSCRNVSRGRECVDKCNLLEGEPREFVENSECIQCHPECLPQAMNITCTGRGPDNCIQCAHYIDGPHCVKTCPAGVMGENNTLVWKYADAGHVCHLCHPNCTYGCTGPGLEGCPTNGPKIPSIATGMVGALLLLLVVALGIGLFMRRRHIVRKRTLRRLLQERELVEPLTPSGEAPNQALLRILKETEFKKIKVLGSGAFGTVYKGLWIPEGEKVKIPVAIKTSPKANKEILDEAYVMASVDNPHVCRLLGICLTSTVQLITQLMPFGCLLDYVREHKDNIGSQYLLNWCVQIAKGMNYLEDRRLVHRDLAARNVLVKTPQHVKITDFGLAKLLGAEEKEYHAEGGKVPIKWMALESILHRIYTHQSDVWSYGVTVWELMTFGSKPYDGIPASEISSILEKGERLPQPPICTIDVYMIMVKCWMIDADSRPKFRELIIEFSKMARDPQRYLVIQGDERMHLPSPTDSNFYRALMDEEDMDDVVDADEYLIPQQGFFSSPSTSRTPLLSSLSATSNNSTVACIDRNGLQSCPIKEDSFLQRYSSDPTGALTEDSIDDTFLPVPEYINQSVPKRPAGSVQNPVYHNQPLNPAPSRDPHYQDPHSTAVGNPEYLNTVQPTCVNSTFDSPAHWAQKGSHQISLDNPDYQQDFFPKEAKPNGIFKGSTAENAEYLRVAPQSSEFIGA
Test: PC-9 pEGFR AlphaLISA assay
Settings: 4 hours incubation, p-EGFR (Tyr1068) AlphaLISA, read-out: Ext pEGFR_PC-9 Ex19Del IC50
Report the value in nM with no unit label.

1) COc1cc2ncnc(-c3cn(C)nc3-c3ccccc3)c2cc1NC(=O)C1CCN1C (stereo not shown); 3.5
2) COc1cc2ncnc(-c3cn(C)nc3-c3ccccc3)c2cc1OC1CCOC1 (stereo not shown); 5.1
3) CCOc1cc2ncnc(-c3cn(C)nc3-c3ccccc3F)c2nc1NC(=O)[C@]12C[C@H]1CN(C)C2 (single isomer, unassigned); 2.3
4) COc1cc2ncnc(-c3cn(CC(F)F)nc3-c3ccccc3)c2nc1NC(=O)c1ccc(C2CC2)nc1; 1
5) COc1cc2ncnc(-c3cn(C)nc3-c3ccccc3)c2cc1OC(=O)N1CCN(C)[C@H]2C[C@H]21 (racemic); 3.9

Item under review: COc1cc2ncnc(-c3cn(C)nc3-c3ccccc3)c2nc1OC(C)c1cccnc1F (stereo not shown) . Reported IC50? 1.1

Item under review: COc1cc2ncnc(-c3cn(C)nc3-c3ccccc3)c2nc1NC(=O)[C@@]1(C)CCCO1 . Reported IC50? 3.5

Item under review: COc1cc2ncnc(-c3cn(C)nc3-c3ccccc3)c2cc1NC(=O)[C@]12C[C@H]1CN(C)C2 . Reported IC50? 5.9

Item under review: COc1cc2ncnc(-c3cn(C)nc3-c3ccccc3)c2cc1NC(=O)C12C3C4C1C1C2C3C41NC(=O)OC(C)(C)C (stereo not shown) . Reported IC50? 4.5

Item under review: COc1cc2ncnc(-c3cn(CC(F)F)nc3-c3ccccc3)c2cc1[C@H](C)O (single isomer, unassigned) . Reported IC50? 5.7
